Recorded pKd by entry
target entity: P-tau peptide (wild-type P-tau peptide and its pure cis or cis-locked, and pure trans counterparts)
protocol notes: Biacore (SPR) with P-tau peptide
Remember, pKd is on a log scale: it is -log10 of the molar concentration.

Here is how some binders turned out for pKd.
binder	pKd
Cis-mAb HT2 (humanized) (antibody, V domains shown) VH: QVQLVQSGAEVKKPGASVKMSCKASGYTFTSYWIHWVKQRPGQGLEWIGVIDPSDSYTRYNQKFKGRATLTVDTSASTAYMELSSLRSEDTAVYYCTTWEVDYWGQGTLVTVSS VL: DVVMTQSPLSLPVTLGQPASISCRSSQSLVHSDGNTYLHWYLQKPGQSPQLLIYKVSNRFSGVPDRFSGSGSGTDFTLKISRVEAEDVGVYFCSQSTHVPWTFGGGTKVEIK	8.79
Cis-mAb HT4 (humanized) (antibody, V domains shown) VH: QVQLVQSGAEVKKPGASVKVSCKASGYTFTSYWIHWVRQRPGQGLEWIGVIDPSDSYTRYNQKFKGRVTITRDTSASTAYMELSSLRSEDTAVYYCTTWEVDYWGQGTLVTVSS VL: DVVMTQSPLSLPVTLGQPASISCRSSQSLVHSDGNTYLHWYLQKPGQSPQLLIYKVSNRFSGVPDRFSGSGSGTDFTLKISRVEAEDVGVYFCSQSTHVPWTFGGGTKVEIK	8.62
Cis-mAb HT1 (humanized) (antibody, V domains shown) VH: QVQLVQSGAELKKPGASVKMSCKASGYTFTSYWIHWVKQRPGQGLEWIGVIDPSDSYTRYNQKFKGRATLTVDTSASTAYMQLSSLTSEDSAVYYCTTWEVDYWGQGTTVTVSS VL: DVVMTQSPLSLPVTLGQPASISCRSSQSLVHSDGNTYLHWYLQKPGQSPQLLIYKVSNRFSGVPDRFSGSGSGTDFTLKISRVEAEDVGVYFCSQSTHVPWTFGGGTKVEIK	8.74
Cis-mAb HT13 (mouse-human chimera, control) (antibody, V domains shown) VH: QVQLQQPGAELVKPGASVKMSCKASGYTFTSYWIHWVKQRPGQGLEWIGVIDPSDSYTRYNQKFKGKATLTVDTSSSTAYMQLSSLTSEDSAVYYCTTWEVDYWGQGTTLTVSS VL: DVVMTQTPLSLPVSLGDQASISCRSSQSLVHSDGNTYLHWYLQKPGQSPKLLIYKVSNRFSGVPDRFSGSGSGTDFTLKISRLEAEDLGVYFCSQSTHVPWTFGGGTKLEIK	8.90

Now for a further binder.
pKd measured on Cis-mAb HT17 (humanized) (antibody, V domains shown) VH: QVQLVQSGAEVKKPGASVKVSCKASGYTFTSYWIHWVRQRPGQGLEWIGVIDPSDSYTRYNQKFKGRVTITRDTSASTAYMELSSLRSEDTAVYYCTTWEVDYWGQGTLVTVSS VL: DVVMTQSPLSLPVTLGQPASISCRSSQSLVHSDGNTYLNWYLQKPGQSPQLLIYKVSNRFSGVPDRFSGSGSGTDFTLKISRVEAEDVGVYFCSQSTHVPWTFGGGTKVEIK = 5.31

Cited source: patent US20230348578A1
